Experiment: qHTS Assay for Lipid Storage Modulators in Drosophila S3 Cells
Details: BODIPY lipid droplet fluorescence, 18-24 h, cells fed with added oleic acid; series mostly up to 46.1 µM
Out of some 320,000 compounds screened, about 2,100 (0.66%) were called active. About 53% were inconclusive and are not listed. The call rests on the fitted dose curve; in most records, active means well fitted inhibition curve with a large enough effect in the signal ratio, with a control signal flat (not every such curve was filed as active); inconclusive means small, poorly fitted or top-dose-only effect, or effect the other way, or a change in a side signal; inactive means flat fitted curve, though single readings scatter; the % refers to the signal ratio. The full list was thinned out, with actives kept by preference.
Outcomes you can answer with include only these: yes for active, no for inactive

Past entries and their recorded results:
1) Cc1ccc(NC(=O)Cc2nn(C)c(=O)c3ccccc23)cc1F	no
2) Cc1ccc(NC(=O)c2cccs2)cc1NC(=O)c1cccc(F)c1	no
3) CCN(CC)c1ccc(/C=N/NC(=O)C(O)(c2ccccc2)c2ccccc2)o1	yes

Lookup: Can you look up the reported call for COc1ccccc1OCCNc1cc(N2CCCCC2)ccc1[N+](=O)[O-] for me?
Found: no

###

Assay: qHTS Assay for Lipid Storage Modulators in Drosophila S3 Cells;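 on cell number change: cells counted by Cell Tracker Red CMTPX staining in the red channel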
Conditions: BODIPY lipid droplet fluorescence, 18-24 h, cells fed with added oleic acid; measured here: cell count max response
Screen size: about 320,000 compounds; about 2,100 (0.66%) were called active. Another 53% or so got no clear call; they are omitted. Many of the other results were omitted from the sample, so actives are more common in it than they were.
attribute measured: cell number change
Kindly format the answer as number then unit.

For orientation, consider the following solved cases.
1. Cc1ccc(C(=O)NC2CCS(=O)(=O)C2)cc1S(=O)(=O)N1CCOCC1 (centres undefined)	10.2%
2. C/C(=C\C=C(C#N)C#N)c1cc(C#N)c(N)o1	-22.3%
3. CC(=O)Nc1ccc(S(=O)(=O)NCCC(=O)OCc2nc(N)nc(Nc3ccccc3C)n2)cc1	3.4%
4. O=C(NCc1ccccn1)C1CCN(S(=O)(=O)c2cnc[nH]2)CC1	-2.16%
5. O=C(O)c1cc2ncc(-c3[nH]ncc3[N+](=O)[O-])cn2n1	25.8%

The recorded cell number change for entry COCCn1c(SCC(=O)NCCc2ccc(OC)c(OC)c2)nc2c([nH]c3ccccc32)c1=O equals 5.96%

###

Test: qHTS Assay for Lipid Storage Modulators in Drosophila S3 Cells
Details: BODIPY lipid droplet fluorescence, 18-24 h, cells fed with added oleic acid; series mostly up to 46.1 µM
Text: NIH Molecular Libraries Probe Production Centers Network [MLPCN] NIH Chemical Genomics Center [NCGC] […] Triacsin C (Sigma-Aldrich T-4540), an inhibitor of long-chain fatty acyl CoA synthetase that blocks synthesis of triglycerides, was used as a positive control for lipid under-storage. […] Fluorescence was detected by excitation of the fluorophores with a 488-nm laser on an Acumen Explorer (TTP Lab Tech). […] Cells were detected using channel 3 (575-640 nm) with 5-um width and 100-um depth filters. […]
In all, about 320,000 compounds went through this assay and about 2,100 (0.66%) were called active. Another 53% or so got no clear call; they are omitted. Calls follow the shape of the dose curve; as a rule, active = well fitted inhibition curve with a large enough effect in the signal ratio, with a control signal flat (not every such curve was filed as active); inconclusive = small, poorly fitted or top-dose-only effect, or effect the other way, or a change in a side signal; inactive = flat fitted curve, though single readings scatter; the % refers to the signal ratio. This excerpt belongs to a sample that is enriched for actives.
Outcomes you can answer with include only these: active, inactive

1) CSC1=NC(NCCCO)c2c(sc3c2CC(C)(C)OC3)N1 (stereo unspecified)	inactive
2) O=C(CCNS(=O)(=O)c1ccc(Cl)cc1)N1CCN(Cc2ccccc2)CC1	inactive
3) Cc1ccc2nc(SCC(=O)N3CCOCC3)[nH]c2c1	inactive
4) COc1ccc(NC(=O)CC2C(=O)NCCN2C(=O)Nc2ccc(C(F)(F)F)cc2)cc1 (stereo unspecified)	inactive
5) O=C(N/N=C/c1ccccc1C(=O)O)c1cccc(S(=O)(=O)N2CCOCC2)c1	inactive
6) COC(=O)c1ccc(CSc2nc3ccc(S(=O)(=O)N4CCOCC4)cc3[nH]2)cc1	inactive

Lookup: Can you look up the reported call for c1cncc(-c2cn(C[C@H]3CC[C@@H]([C@@H]4CC[C@H](Cn5cc(-c6cccnc6)nn5)O4)O3)nn2)c1 for me?
Found: active

Lookup: Can you look up the reported call for Cc1cc(C)n(CCCN2C(=O)c3cccc4cccc(c34)C2=O)n1 for me?
Found: inactive

Lookup: Can you look up the reported call for O=C(c1ccc(C(F)(F)F)cc1)N1CCN(S(=O)(=O)c2ccc3c(c2)OCCCO3)CC1 for me?
Found: inactive

Lookup: Can you look up the reported call for CNc1ccc(Oc2c(F)c(F)nc(F)c2F)cc1 for me?
Found: inactive

Lookup: Can you look up the reported call for O=C(CSc1nc2ccc(S(=O)(=O)N3CCOCC3)cc2[nH]1)N1CCOCC1 for me?
Found: active

Lookup: Can you look up the reported call for c1ccc(-c2cn(C[C@H]3CC[C@@H]([C@@H]4CC[C@H](Cn5cc(-c6ccccc6)nn5)O4)O3)nn2)cc1 for me?
Found: inactive
